IC50 values by entry
target: MMP-13 (Homo sapiens, UniProt P45452); construct: made in house; host or cells: baculovirus / insect cells; assay: biochemical; settings: read-out: MMP-13 IC50
Provide the reading as a plain figure in nM.

> print(dat)
                               smiles.input  quantitative.result
1  CN(C)CCN1CCN(C(=O)C2CCN(c3ccc(S(=O)(=O)C4(C(=O)NO)CCOCC4)cc3)CC2)CC1                   90
2  O=C(c1ccc(F)cc1)C1CCN(c2ccc(S(=O)(=O)C3(C(=O)NO)CCS(=O)(=O)CC3)cc2)CC1                 32.6
3  O=C(C1CCN(c2ccc(S(=O)(=O)C3(C(=O)NO)CCOCC3)cc2)CC1)N1CCN(c2ccc(F)cc2F)CC1                 15.8

# input Annotate the molecule O=C(C1CCN(c2ccc(S(=O)(=O)C3(C(=O)NO)CCOCC3)cc2)CC1)N1CCN(c2ccc(C(F)(F)F)cc2[N+](=O)[O-])CC1 with its measured IC50.
# output 10

----------
target: MMP-1 (Homo sapiens, UniProt P03956); construct: made in house; host or cells: transfected HT-1080 cells (provided by Dr. Harold Welgus, Washington University); assay: biochemical; details: recombinant human MMP-1, MCA peptide substrate 4 μM, pH 7.5, room temperature; read-out: MMP-1 IC50
Sequence (P03956 100-469): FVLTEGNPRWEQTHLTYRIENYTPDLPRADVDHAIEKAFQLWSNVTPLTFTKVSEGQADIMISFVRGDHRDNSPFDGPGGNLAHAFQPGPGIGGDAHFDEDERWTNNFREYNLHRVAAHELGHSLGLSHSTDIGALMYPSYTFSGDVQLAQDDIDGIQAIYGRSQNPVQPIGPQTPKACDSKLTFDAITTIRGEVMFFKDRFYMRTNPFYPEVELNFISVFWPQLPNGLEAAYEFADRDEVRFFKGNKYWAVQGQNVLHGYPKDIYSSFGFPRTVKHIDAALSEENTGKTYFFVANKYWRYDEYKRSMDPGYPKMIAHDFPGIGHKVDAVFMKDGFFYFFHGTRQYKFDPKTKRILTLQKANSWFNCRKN
pIC50: −log10 of the molar value. Counter-ions that a name gives are not always drawn.
MEASUREMENT_NAME: pIC50

Worked set:
COMPOUND	pIC50
O=C(Nc1ccccc1)C1CCN(c2ccc(S(=O)(=O)C3(C(=O)NO)CCN(C4CC4)CC3)cc2)CC1 [Example 243, Monohydrochloride]	< 5.00
CCCCOc1cccc(S(=O)(=O)N2CC(Oc3ccc(S(=O)(=O)C4(C(=O)NO)CCOCC4)cc3)C2)c1 [Example 830]	< 5.00
COc1cccc(COC2CCC(Oc3ccc(S(=O)(=O)C4(C(=O)NO)CCOCC4)cc3)C2)c1 (centres unmarked) [Example 694]	< 5.00

# input Annotate the compound O=C(NO)C1(S(=O)(=O)c2ccc(N3CCC(CCOCc4ccc(F)cc4)CC3)cc2)CCOCC1 [Example 500] with its measured pIC50.
# output < 5.00

# input Annotate the compound CCN(Cc1ccncc1)C(=O)C1CCN(c2ccc(S(=O)(=O)C3(C(=O)NO)CCOCC3)cc2)CC1 [Example 52] with its measured pIC50.
# output < 5.00

# input Annotate the compound CCCCSC1CCN(c2ccc(S(=O)(=O)C3(C(=O)NO)CCOCC3)cc2)CC1 [Example 596] with its measured pIC50.
# output < 5.00

----------
molecular target: MMP-2 (Homo sapiens, UniProt P08253); construct: made in house; provided by Dr. Gregory Goldberg, Washington University; experiment: biochemical; conditions: recombinant human MMP-2, MCA peptide substrate 4 μM, pH 7.5, room temperature; read-out: MMP-2 IC50
Sequence (P08253 110-660): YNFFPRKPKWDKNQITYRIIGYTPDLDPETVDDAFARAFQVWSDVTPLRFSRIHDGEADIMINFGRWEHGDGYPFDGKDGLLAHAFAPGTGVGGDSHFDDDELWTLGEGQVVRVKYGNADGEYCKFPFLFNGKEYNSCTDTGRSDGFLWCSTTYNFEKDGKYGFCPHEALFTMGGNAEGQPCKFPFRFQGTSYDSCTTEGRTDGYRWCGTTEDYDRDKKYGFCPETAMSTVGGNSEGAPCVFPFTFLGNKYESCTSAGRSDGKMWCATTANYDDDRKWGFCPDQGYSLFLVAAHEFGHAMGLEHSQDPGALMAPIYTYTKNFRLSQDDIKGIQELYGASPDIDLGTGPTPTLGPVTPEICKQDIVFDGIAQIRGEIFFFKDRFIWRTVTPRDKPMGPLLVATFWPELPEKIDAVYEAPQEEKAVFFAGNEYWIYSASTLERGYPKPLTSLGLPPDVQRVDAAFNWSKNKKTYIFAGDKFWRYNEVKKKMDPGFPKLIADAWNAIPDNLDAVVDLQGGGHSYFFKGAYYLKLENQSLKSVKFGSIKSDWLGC
MEASUREMENT_NAME: pIC50
Scale: negative log10 of molar concentration, which is what pIC50 denotes.

# input Annotate the molecule O=C(NO)C1(S(=O)(=O)c2ccc(N3CCCC3)cc2)CCSCC1 [Example 155] with its measured pIC50.
# output 6.62

# input Annotate the molecule CC(=O)Nc1ccc(Oc2ccc(S(=O)(=O)C3(C(=O)NO)CCN(C4CC4)CC3)cc2)cc1 [Example 378] with its measured pIC50.
# output 9.52

# input Annotate the molecule O=C(NO)C1(S(=O)(=O)c2ccc(N3CCC(Oc4ccc(C(F)(F)F)cc4)CC3)cc2)CCOCC1 [Example 567] with its measured pIC50.
# output 7.06

# input Annotate the molecule CN(C)CCN(C)CCCCC(=O)N1CCC(C(=O)NO)(S(=O)(=O)c2ccc(Oc3ccc(C(F)(F)F)cc3)cc2)CC1 [Example 338] with its measured pIC50.
# output 9.70

These measurements were taken from patent US6750228B1.
